target: Maternal embryonic leucine zipper kinase (Homo sapiens); details: at 0.1 µM;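 further: reported figure is the mean percent inhibition of MELK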
Provide the recorded inhibition for the entries that follow.
Give bare numbers, in %.

[
  {
    "smiles-record": "Cc1cc(O)cc(C)c1/C=C/c1cncc(C(=O)OC(C)(C)C)c1",
    "readout-label": "inhibition",
    "observed-result": 3.07
  },
  {
    "smiles-record": "CC1(C)CC(n2cnc(-c3ccc(F)cc3)c2-c2ccnc(N)n2)CC(C)(C)N1",
    "readout-label": "inhibition",
    "observed-result": 2.12
  },
  {
    "smiles-record": "CCCNc1cccc(-n2ncc3c(N/N=C/c4ccncc4)ncnc32)c1",
    "readout-label": "inhibition",
    "observed-result": -0.14
  },
  {
    "smiles-record": "CS(=O)(=O)Nc1ccc(-c2ccc3c(NC(=O)C4CC4)n[nH]c3c2)cc1",
    "readout-label": "inhibition",
    "observed-result": 2.17
  }
]

Report inhibition for each item below.
1. COc1cccc(Nc2nccc(-c3cnn4ncccc34)n2)c1
2. Cc1cc(O)cc(C)c1/C=C/c1cncc(C(N)=O)c1
3. CN(C)CCNC(=O)Nc1ccc(N(C)c2ccnc(Nc3ccc(CS(C)(=O)=O)cc3)n2)cc1
4. CNC(=O)c1sc(-n2cnc3cc(OC)c(OC)cc32)cc1OCc1ccccc1C(F)(F)F
5. O=C(Nc1n[nH]c2nnc(-c3cccnc3)cc12)C1CC1
6. CCS(=O)(=O)c1ccc(OC)c(Nc2ncc(-c3cccc(F)c3)o2)c1

[A]
5.16
3.07
4.26
2.63
-0.51
7
